- Test system: HACAT
- protocol.description: qHTS assay to identify novel small-molecules to repurpose for Merkel cell carcinoma treatment (AID 1296009); note: nearly all actives have a fitted effect of over 60% in size
- recorded.conditions: MCC and control cell lines, CellTiter-Glo viability, 72 h; at 44.8 µM (top of the series) unless noted
- Excerpt: MCC is a rare and aggressive neuroendocrine skin cancer with limited treatment options. Approximately 80% of MCCs have the Merkel cell polyomavirus (MCPyV) DNA integrated into the host genome (virus-positive: VP-MCC) and viral oncogenes drive oncogenesis. The remaining MCCs are virus-negative (VN-MCC) and are caused by UV mutagenesis. […] Using cell viability as a readout (CellTiter-Glo assay) we found both overlapping and distinct drugs that can be repurposed for the treatment of VP-MCC and VN-MCC. […]
Inconclusive results are not listed. Activity calls are given as the source filed them. Calls come from the whole dose curve; as a rule, active = well fitted inhibition curve with a large enough effect; inconclusive = small, poorly fitted or top-dose-only effect; inactive = flat fitted curve, though single readings scatter.
test.readout: outcome

molecule: CCN1C[C@]2(OC(=O)c3ccccc3NC(C)=O)CC[C@H](OC)[C@@]34[C@H]5CC6[C@@H](OC)C[C@](O)(C(C[C@@H]23)[C@@H]14)[C@@]5(O)[C@@H]6OC
reported.result: inactive

molecule: CCCC[N+]1(C)[C@H]2CC(OC(=O)[C@H](CO)c3ccccc3)C[C@H]1[C@H]1O[C@H]12 (stereo not given in full)
reported.result: inactive

molecule: O=C(O)CNC(=O)c1c(O)c2ccccc2n(Cc2ccccc2)c1=O
reported.result: inactive

molecule: CN(C)[C@@H]1C(=O)C(C(N)=O)=C(O)[C@@]2(O)C(=O)C3=C(O)c4c(O)cccc4[C@@](C)(O)[C@H]3[C@H](O)[C@@H]12
reported.result: inactive

molecule: COc1cccc2c1[C@]13CCN(CC4CC4)[C@H](C2)[C@]1(OC)CCC(=O)C3
reported.result: inactive

molecule: COc1ccc(CC2NCCc3cc(OC)c(OC)cc32)cc1OC (stereo not given)
reported.result: inactive

molecule: COc1ccc(C(=O)c2c(C)n(CCN3CCOCC3)c3cc(I)ccc23)cc1
reported.result: inactive

molecule: O=C(N[C@H]1CN2CCC1CC2)c1ccc(Cl)cc1
reported.result: inactive

molecule: C#C[C@]1(O)C=C[C@@H]2[C@@H]3CCC4=CC(=O)CC[C@@H]4[C@H]3CC[C@@]21CC
reported.result: inactive

molecule: C=C1C[C@H]2[C@H]3CCC(=O)[C@@]3(C)CC[C@@H]2[C@@]2(C)C=CC(=O)C=C12
reported.result: inactive

----------
- test.target: Nucleoprotein (Lymphocytic choriomeningitis virus (strain Armstrong)) (UniProt P09992)
- Sequence (P09992 whole entry, looked up): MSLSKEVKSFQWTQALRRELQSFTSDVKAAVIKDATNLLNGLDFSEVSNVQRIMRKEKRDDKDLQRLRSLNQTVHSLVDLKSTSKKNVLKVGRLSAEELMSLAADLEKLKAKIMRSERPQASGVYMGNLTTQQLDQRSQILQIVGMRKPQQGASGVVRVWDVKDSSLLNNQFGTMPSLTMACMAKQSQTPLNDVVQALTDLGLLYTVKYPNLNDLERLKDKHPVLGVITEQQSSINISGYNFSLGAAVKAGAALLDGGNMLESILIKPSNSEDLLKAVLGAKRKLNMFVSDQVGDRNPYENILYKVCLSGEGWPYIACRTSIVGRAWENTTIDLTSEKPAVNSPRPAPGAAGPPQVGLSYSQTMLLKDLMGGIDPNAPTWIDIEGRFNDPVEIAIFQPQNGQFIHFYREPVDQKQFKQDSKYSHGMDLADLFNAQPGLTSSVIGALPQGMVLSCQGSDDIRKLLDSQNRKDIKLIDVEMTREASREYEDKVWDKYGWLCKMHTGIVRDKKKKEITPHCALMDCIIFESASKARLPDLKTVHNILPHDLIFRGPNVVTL
- protocol.description: qHTS for Inhibitors of the Functional Ribonucleoprotein Complex (vRNP) of Lymphocytic Choriomeningitis Arenaviruses (LCMV): LCMV Primary Screen - GLuc reporter signal (AID 1347086); note: nearly all actives have a fitted effect of over 70% in size
- recorded.conditions: LCMV minigenome vRNP cell assay, Gaussia luciferase reporter; series mostly up to 57.5 µM
Inconclusive results are not listed. The source made the active and inactive calls. The call rests on the fitted dose curve.
Outcomes: T = active, F = inactive

compound: COc1cc([C@@H]2c3cc4c(cc3[C@@H](O)C3COC(=O)C32)OCO4)cc(OC)c1O (stereo partly drawn)
label.class: T

compound: CS(=O)(=O)Oc1ccc2c(NC(N)=O)c(C(=O)c3ccc(Cl)cc3Cl)oc2c1
label.class: F

compound: O=C(C=Cc1cccc(S(=O)(=O)Nc2ccccc2)c1)NO
label.class: F

compound: CC[C@H]1C=CC=CC[C@@H](C)[C@H](O)[C@@](C)(O)C(=O)[C@@H](C)[C@H](O)[C@@H](C)C(=O)[C@@H](C)[C@H](O)[C@@H](C)C=CC(=O)O[C@@H]2[C@@H](C)[C@H](CC1)O[C@]1(CC[C@H](C)[C@H](C[C@@H](C)O)O1)[C@H]2C
label.class: T

compound: CCCCOC(=O)c1ccccc1C(=O)OCc1ccccc1
label.class: F

compound: CC(C)(C)c1cc(C(C)(C)C)c(NC(=O)c2c[nH]c3ccccc3c2=O)cc1O
label.class: F

compound: CCOC(=O)Nc1ccc(NCc2ccc(F)cc2)cc1N
label.class: T

compound: CS(=O)(=O)c1ccc(C(=O)C2C(=O)CCCC2=O)c([N+](=O)[O-])c1
label.class: F

----------
- protocol.description: qHTS of pediatric cancer cell lines to identify multiple opportunities for drug repurposing: Confirmatory screen for control Hh wild type fibroblast cells (AID 1347121); note: nearly all actives have a fitted effect of over 70% in size
- recorded.conditions: viability qHTS; series mostly up to 45.9 µM
Inconclusive results are not listed. The source made the active and inactive calls. Calls come from the whole dose curve; as a rule, active = well fitted cell-killing curve with a large enough effect; inconclusive = small, poorly fitted or top-dose-only effect, or effect the other way; inactive = flat fitted curve, though single readings scatter.
Outcomes: T = active, F = inactive

compound: CCCCCC[C@H]1C(=O)O[C@H](C)[C@H](NC(=O)c2cccc(NC=O)c2O)C(=O)O[C@@H](C)[C@@H]1OC(=O)CC(C)C
label.class: T

compound: CC(C)(O)C=CC(=O)[C@](C)(O)[C@H]1[C@H](O)C[C@]2(C)[C@@H]3CC=C4[C@@H](C=C(O)C(=O)C4(C)C)[C@]3(C)C(=O)C[C@@]12C
label.class: T

compound: C[C@@]12OC(=O)[C@]1([C@@H](O)[C@@H]1C=CCCC1)NC(=O)[C@H]2CCCl
label.class: T

compound: O=C(N[C@H]1CN2CCC1CC2)c1ccc(Cl)cc1
label.class: F

compound: CC[C@@H]1[C@@H](C)O[C@@](O)([C@@H](C)[C@H](O)[C@H](C)[C@H]2OC(=O)C=CC=C[C@@H](C)[C@@H]([C@@H](C)[C@@H](O)[C@H](C)[C@@]3(O)C[C@H](O[C@H]4C[C@H](O)[C@H](O)[C@H](C)O4)[C@H](CC)[C@@H](C)O3)OC(=O)C=CC=C[C@@H]2C)C[C@H]1O[C@H]1C[C@H](O)[C@H](O)[C@H](C)O1
label.class: F

compound: CC(C)(C)C(O)C(Oc1ccc(Cl)cc1)n1cncn1 (configuration not stated)
label.class: F

compound: CCCN1CCO[C@@H]2c3cc(O)ccc3OC[C@@H]21
label.class: F

----------
- System: TAB113
- protocol.description: qHTS profiling for inhibitors of Plasmodium falciparum proliferation (AID 504749); note: nearly all actives have a fitted effect of over 60% in size
- recorded.conditions: P. falciparum in erythrocytes, SYBR Green DNA, 72 h; series mostly up to 28.7 µM
Results filed as inconclusive are left out. Active and inactive are the calls of the source. The call rests on the fitted dose curve; in most records, active means well fitted inhibition curve with a large enough effect; inconclusive means small, poorly fitted or top-dose-only effect; inactive means flat fitted curve, though single readings scatter.
Outcomes: active, inactive

molecule: CCCN1CCC[C@H](c2cccc(O)c2)C1
test.target: TAB113
label.class: inactive
--
molecule: O=C(O)C(Cl)Cl
test.target: TAB113
label.class: inactive
--
molecule: CN[C@@H]1C[C@@H](c2ccc(Cl)c(Cl)c2)c2ccccc21
test.target: TAB113
label.class: inactive
--
molecule: C1CCC(NC2CCCCC2)CC1
test.target: TAB113
label.class: inactive
--
molecule: CCCCCCCCCCCCCCCC[N+](C)(C)C
test.target: TAB113
label.class: active
--
molecule: O=C(O)COc1ccccc1
test.target: TAB113
label.class: inactive
--
molecule: Cc1cc(O)ccc1Cl
test.target: TAB113
label.class: inactive
--
molecule: COC(=O)[C@@H](N)CCCN=C(N)N[N+](=O)[O-]
test.target: TAB113
label.class: inactive
--
molecule: CN(C)[C@@H]1C(=O)C(C(N)=O)=C(O)[C@@]2(O)C(=O)C3=C(O)c4c(O)cccc4[C@@](C)(O)[C@H]3[C@H](O)[C@@H]12
test.target: TAB113
label.class: inactive
--
molecule: CCCCCCCCCC(CC)c1ccc(S(=O)(=O)O)cc1 (configuration not stated)
test.target: TAB113
label.class: inactive
--
molecule: CC[N+]1(CCOC(=O)C(O)(c2ccccc2)c2ccccc2)CCCCC1
test.target: TAB113
label.class: inactive
--
molecule: C=CCN1CC[C@]23CCCCC2[C@H]1Cc1ccc(O)cc13 (some centres not stated)
test.target: TAB113
label.class: inactive

----------
- protocol.description: qHTS for Inhibitors of the Functional Ribonucleoprotein Complex (vRNP) of Lassa (LASV) Arenavirus: LASV Primary Screen - GLuc reporter signal (AID 1347082); note: nearly all actives have a fitted effect of over 60% in size
- recorded.conditions: LASV minigenome vRNP, Gaussia luciferase reporter; series mostly up to 57.5 µM
Records with an inconclusive call do not appear. Activity calls are given as the source filed them. The call rests on the fitted dose curve; tested in HEK293 reporter line.
Outcomes: label 1 (active), label 0 (inactive)

smiles.record: S=C(NC1CCCCC1)N1CCC(c2cnc[nH]2)CC1
label.class: label 0
--
smiles.record: CC1(C)OC2=C(C(=O)c3ccccc3C2=O)[C@H](NCc2ccccc2)[C@H]1O
label.class: label 1
--
smiles.record: O=C(Nc1cc(Cl)cc2c1[nH]c1cnccc12)c1cccnc1
label.class: label 1
--
smiles.record: C=C1C[C@H]2[C@H]3CCC(=O)[C@@]3(C)CC[C@@H]2[C@@]2(C)C=CC(=O)C=C12
label.class: label 0
--
smiles.record: Cc1cn(-c2cc(NC(=O)c3ccc(C)c(Nc4nccc(-c5cccnc5)n4)c3)cc(C(F)(F)F)c2)cn1
label.class: label 0
--
smiles.record: COc1cc(Nc2ncc(F)c(Nc3ccc4c(n3)NC(=O)C(C)(C)O4)n2)cc(OC)c1OC
label.class: label 0
--
smiles.record: C#CCOC(=O)C1=CCCN(C)C1
label.class: label 0
--
smiles.record: Fc1ccc(Cl)cc1-c1nc(Nc2ccncc2)c2nccnc2n1
label.class: label 0
--
smiles.record: Fc1cc(Br)ccc1CBr
label.class: label 0
--
smiles.record: CC(C)(N)C(=O)N[C@H](COCc1ccccc1)C(=O)N1CCC2(CC1)CN(S(C)(=O)=O)c1ccccc12
label.class: label 0
